Reference for the values: paper PMC4790320

- tgt: MdtM (Escherichia coli)
- Sequence (P39386 whole entry): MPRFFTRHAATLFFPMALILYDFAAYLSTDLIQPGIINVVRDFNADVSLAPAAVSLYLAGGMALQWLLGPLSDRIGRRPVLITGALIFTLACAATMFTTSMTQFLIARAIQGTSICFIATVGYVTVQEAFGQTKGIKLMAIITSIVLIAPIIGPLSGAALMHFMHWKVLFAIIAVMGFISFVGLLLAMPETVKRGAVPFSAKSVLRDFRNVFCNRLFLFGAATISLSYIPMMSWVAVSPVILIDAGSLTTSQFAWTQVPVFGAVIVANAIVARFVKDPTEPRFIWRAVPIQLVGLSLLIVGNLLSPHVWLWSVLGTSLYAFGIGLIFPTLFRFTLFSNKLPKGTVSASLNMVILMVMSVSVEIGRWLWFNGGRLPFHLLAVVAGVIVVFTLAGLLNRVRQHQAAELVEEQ
metric_name: Kd
Mention the unit after the number when you answer.

What the record says about O=C(N[C@H](CO)[C@H](O)c1ccc([N+](=O)[O-])cc1)C(Cl)Cl [chloramphenicol] : Kd is 0.036 µM
